molecular target: Inadl_3, Q8NI35; test: holdup assay; design: key: below the threshold = too weak to quantify, mostly under pKd 3.1 to 4; details: plain residues with an end cap or a label only (N-terminal biotin on a linker: ado-ado)
Sequence (Q8NI35 359-469): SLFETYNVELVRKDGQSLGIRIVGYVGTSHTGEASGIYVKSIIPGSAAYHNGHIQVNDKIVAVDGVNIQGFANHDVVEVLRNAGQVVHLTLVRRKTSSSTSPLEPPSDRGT
Parameter measured: pKd
Numbers only.

Binder	Parameter measured	Recorded value
QKNKDKEYYV [NRXN3_rs746444206, Q9Y4C0]	pKd	4

Now for another entry.
Briefly, pKd measured for GFGEERESIL [KIDINS220, Q9ULH0] : 3.65

Cited source for all entries: paper PMC9482650
